ASSAY_SYSTEM: NaV1.7 (Homo sapiens)
Construct: expressed in transfected cells; tetracycline-inducible, kept under hygromycin and blasticidin selection
ASSAY_SUMMARY: Internal block: intracellular inhibition of NaV1.7 current, whole cell patch clamp
Assay type: cell-based
TEST_SETTINGS: 10 μM test concentration, compound in internal solution
Where a name gives a salt, the structure may show the parent alone.

- COMPOUND: "CCC(C(=O)Nc1c(C)cccc1C)[P+](CC)(CC)CC (stereo not drawn)"
  inhibition at 10 µM: "40 to 70%"
- COMPOUND: "CCCC[P+](CCCC)(CCCC)CC(=O)Nc1c(C)cccc1C.[Br-]"
  inhibition at 10 µM: "> 95%"
- COMPOUND: "Cc1cccc(C)c1NC(=O)C[P+](c1ccccc1)(c1ccccc1)c1ccccc1.O=C[O-] [Compound 8, formate]"
  inhibition at 10 µM: "> 95%"
- COMPOUND: "CC[P+](CC)(CC)CC(=O)Nc1c(C)cccc1C"
  inhibition at 10 µM: "70 to 95%"
- COMPOUND: "Cc1cccc(C)c1NC(=O)C[P+]1(Cc2ccccc2)CCCC1"
  inhibition at 10 µM: "70 to 95%"
- COMPOUND: "CCC(C(=O)Nc1c(C)cccc1C)[P+]1(Cc2ccccc2)CCCCC1 (stereo not drawn) [Compound 10, formate]"
  inhibition at 10 µM: "> 95%"

====

ASSAY_SYSTEM: NaV1.7 (Homo sapiens, UniProt Q15858)
Construct: expressed in transfected cells; tetracycline-inducible, kept under hygromycin and blasticidin selection
Sequence (Q15858 whole entry): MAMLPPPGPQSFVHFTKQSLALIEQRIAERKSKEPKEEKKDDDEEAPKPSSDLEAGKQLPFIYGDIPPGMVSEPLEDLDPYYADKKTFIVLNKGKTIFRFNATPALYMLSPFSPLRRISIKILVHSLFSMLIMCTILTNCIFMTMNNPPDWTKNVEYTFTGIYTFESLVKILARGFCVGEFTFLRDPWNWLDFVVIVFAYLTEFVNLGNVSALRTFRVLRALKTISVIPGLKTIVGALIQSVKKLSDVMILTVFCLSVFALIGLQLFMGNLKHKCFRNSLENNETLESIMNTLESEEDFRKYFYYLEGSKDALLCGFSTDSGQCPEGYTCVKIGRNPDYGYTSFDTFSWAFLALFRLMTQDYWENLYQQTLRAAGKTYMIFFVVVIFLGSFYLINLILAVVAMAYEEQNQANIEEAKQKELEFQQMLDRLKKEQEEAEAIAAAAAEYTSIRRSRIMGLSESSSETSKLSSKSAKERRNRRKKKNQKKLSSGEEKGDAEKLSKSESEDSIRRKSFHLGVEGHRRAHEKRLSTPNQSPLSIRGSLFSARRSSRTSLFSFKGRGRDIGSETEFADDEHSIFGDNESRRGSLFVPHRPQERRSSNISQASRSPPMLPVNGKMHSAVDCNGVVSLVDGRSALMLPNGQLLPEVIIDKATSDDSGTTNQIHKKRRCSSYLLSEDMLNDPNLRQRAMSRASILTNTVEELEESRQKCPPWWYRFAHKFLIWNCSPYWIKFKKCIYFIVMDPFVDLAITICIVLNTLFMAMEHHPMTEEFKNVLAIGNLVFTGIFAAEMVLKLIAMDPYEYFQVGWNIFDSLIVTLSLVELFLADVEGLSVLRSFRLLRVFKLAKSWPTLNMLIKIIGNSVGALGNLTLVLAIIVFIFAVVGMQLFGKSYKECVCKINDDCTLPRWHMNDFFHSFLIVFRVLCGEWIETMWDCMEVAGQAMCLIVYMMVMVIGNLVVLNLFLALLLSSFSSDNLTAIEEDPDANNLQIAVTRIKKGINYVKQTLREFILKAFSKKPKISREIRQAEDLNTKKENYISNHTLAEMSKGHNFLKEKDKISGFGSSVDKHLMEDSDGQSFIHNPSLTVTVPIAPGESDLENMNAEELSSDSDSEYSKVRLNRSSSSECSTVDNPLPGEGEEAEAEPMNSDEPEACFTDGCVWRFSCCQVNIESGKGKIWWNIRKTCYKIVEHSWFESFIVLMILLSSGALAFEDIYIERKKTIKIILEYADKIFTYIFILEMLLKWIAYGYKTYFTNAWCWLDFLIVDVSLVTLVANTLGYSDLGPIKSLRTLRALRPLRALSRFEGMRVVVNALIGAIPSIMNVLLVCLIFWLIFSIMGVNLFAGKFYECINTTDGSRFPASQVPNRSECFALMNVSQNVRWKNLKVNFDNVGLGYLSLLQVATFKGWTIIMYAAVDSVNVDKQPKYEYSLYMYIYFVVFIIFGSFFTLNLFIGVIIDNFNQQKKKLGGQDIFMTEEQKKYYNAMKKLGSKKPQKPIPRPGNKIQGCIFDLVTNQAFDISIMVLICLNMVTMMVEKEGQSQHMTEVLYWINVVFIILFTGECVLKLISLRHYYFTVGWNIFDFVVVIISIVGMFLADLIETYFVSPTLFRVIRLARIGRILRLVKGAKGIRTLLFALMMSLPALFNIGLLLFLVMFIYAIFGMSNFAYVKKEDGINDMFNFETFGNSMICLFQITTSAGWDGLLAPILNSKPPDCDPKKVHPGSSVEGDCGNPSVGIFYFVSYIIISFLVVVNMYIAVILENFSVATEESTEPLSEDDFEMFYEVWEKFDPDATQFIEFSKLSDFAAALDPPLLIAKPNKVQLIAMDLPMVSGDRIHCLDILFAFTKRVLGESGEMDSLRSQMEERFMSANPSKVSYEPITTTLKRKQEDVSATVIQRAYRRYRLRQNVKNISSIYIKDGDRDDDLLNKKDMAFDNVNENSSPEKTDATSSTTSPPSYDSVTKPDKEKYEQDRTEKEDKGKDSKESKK
ASSAY_SUMMARY: Internal block: intracellular inhibition of NaV1.7 current, whole cell patch clamp
Format: cell-based
TEST_SETTINGS: 10 μM test concentration, compound in internal solution
Structures can show the parent of a compound that is named as a salt.

- COMPOUND: "Cc1cccc(C)c1NC(=O)C[P+]1(Cc2ccccc2)CCCCCC1"
  inhibition at 10 µM: "> 95%"
- COMPOUND: "Cc1cccc(C)c1NC(=O)C[P+]1(Cc2ccccc2)CCCCC1.[Br-]"
  inhibition at 10 µM: "> 95%"
- COMPOUND: "CC[P+](CC)(CC(=O)Nc1c(C)cccc1C)CC(=O)Nc1c(C)cccc1C [Compound 6, acetate]"
  inhibition at 10 µM: "70 to 95%"
- COMPOUND: "CCC(C(=O)Nc1c(C)cccc1C)[P+](c1ccccc1)(c1ccccc1)c1ccccc1 (stereo not shown) [Compound 9, formate]"
  inhibition at 10 µM: "> 95%"

====

Listed here are compounds together with their documented Papp at 4 h, 50 uM.
ASSAY_SUMMARY: PAMPA membrane permeability assay (artificial lipid membrane, passive diffusion)
Assay type: in vitro ADME
TEST_SETTINGS: pH 7.4 buffer, GIT lipid, 4 hours incubation
Where a name gives a salt, the structure may show the parent alone.
MEASURED_QUANTITY: Papp at 4 h, 50 uM

- COMPOUND: "CCOC(=O)c1cccc(F)c1NC(=O)C[P+]1(Cc2ccccc2)CCCCC1"
  RESULT: "< 0.1 ×10⁻⁶ cm/s"
- COMPOUND: "CCOC(=O)c1cccc(CC)c1NC(=O)C[P+]1(Cc2ccccc2)CCCCC1"
  RESULT: "< 0.1 ×10⁻⁶ cm/s"
- COMPOUND: "CCCC[P+](CCCC)(CCCC)CC(=O)Nc1c(C)cccc1C(=O)OC.[Br-]"
  RESULT: "< 0.1 ×10⁻⁶ cm/s"
- COMPOUND: "Cc1cccc(C)c1NC(=O)C[P+]1(Cc2ccccc2)CCCC1"
  RESULT: "0.1 to 2 ×10⁻⁶ cm/s"
- COMPOUND: "COC(=O)c1cccc(C)c1NC(=O)C[P+](c1ccccc1)(c1ccccc1)c1ccccc1"
  RESULT: "< 0.1 ×10⁻⁶ cm/s"
- COMPOUND: "CCC(C(=O)Nc1c(C)cccc1C(=O)OC)[P+]1(Cc2ccccc2)CCCCC1 (centres unmarked)"
  RESULT: "< 0.1 ×10⁻⁶ cm/s"
- COMPOUND: "CC[P+](CC)(CC)CC(=O)Nc1c(C)cccc1C"
  RESULT: "< 0.1 ×10⁻⁶ cm/s"
- COMPOUND: "Cc1cccc(C)c1NC(=O)C[P+]1(Cc2ccccc2)CCCCC1.[Br-]"
  RESULT: "0.1 to 2 ×10⁻⁶ cm/s"
- COMPOUND: "CCCC[P+](CCCC)(CCCC)CC(=O)Nc1c(C)cccc1C.[Br-]"
  RESULT: "2 to 10 ×10⁻⁶ cm/s"
- COMPOUND: "CCOC(=O)c1cccc(Cl)c1NC(=O)C[P+]1(Cc2ccccc2)CCCCC1"
  RESULT: "> 10 ×10⁻⁶ cm/s"
- COMPOUND: "CCC(C(=O)Nc1c(C)cccc1C)[P+]1(Cc2ccccc2)CCCCC1 (centres unmarked) [Compound 10, formate]"
  RESULT: "< 0.1 ×10⁻⁶ cm/s"
- COMPOUND: "Cc1cccc(C)c1NC(=O)C[P+]1(Cc2ccccc2)CCCCCC1"
  RESULT: "< 0.1 ×10⁻⁶ cm/s"
- COMPOUND: "Cc1cccc(C)c1NC(=O)C[P+](c1ccccc1)(c1ccccc1)c1ccccc1.O=C[O-]"
  RESULT: "< 0.1 ×10⁻⁶ cm/s"
- COMPOUND: "CC[P+](CC)(CC(=O)Nc1c(C)cccc1C)CC(=O)Nc1c(C)cccc1C [Compound 6, acetate]"
  RESULT: "< 0.1 ×10⁻⁶ cm/s"
- COMPOUND: "CCOC(=O)c1cccc(OCC)c1NC(=O)C[P+]1(Cc2ccccc2)CCCCC1"
  RESULT: "< 0.1 ×10⁻⁶ cm/s"
- COMPOUND: "Cc1cccc(C(=O)OC(C)(C)C)c1NC(=O)C[P+]1(Cc2ccccc2)CCCCC1"
  RESULT: "< 0.1 ×10⁻⁶ cm/s"
- COMPOUND: "CCC(C(=O)Nc1c(C)cccc1C)[P+](c1ccccc1)(c1ccccc1)c1ccccc1 (centres unmarked) [Compound 9, formate]"
  RESULT: "2 to 10 ×10⁻⁶ cm/s"
- COMPOUND: "CCOC(=O)c1cccc(C)c1NC(=O)C[P+]1(Cc2ccccc2)CCCCC1"
  RESULT: "< 0.1 ×10⁻⁶ cm/s"
- COMPOUND: "CC[P+](CC)(CC)CC(=O)Nc1c(C)cccc1C(=O)OC.[Br-]"
  RESULT: "< 0.1 ×10⁻⁶ cm/s"
- COMPOUND: "CCC(C(=O)Nc1c(C)cccc1C)[P+](CC)(CC)CC (centres unmarked)"
  RESULT: "> 10 ×10⁻⁶ cm/s"
